Every entry's value here was drawn from patent US8575156B2.

- tested on: 11β-HSD1 (Homo sapiens, UniProt P28845)
- Sequence (P28845 whole entry): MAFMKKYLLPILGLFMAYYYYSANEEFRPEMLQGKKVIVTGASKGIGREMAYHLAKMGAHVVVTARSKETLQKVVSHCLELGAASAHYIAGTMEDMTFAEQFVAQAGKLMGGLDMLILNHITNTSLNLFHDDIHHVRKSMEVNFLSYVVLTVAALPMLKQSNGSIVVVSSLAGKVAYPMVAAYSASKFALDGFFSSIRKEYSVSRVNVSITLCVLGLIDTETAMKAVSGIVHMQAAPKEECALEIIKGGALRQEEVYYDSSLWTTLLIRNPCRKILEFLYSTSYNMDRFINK
- measurement protocol: biochemical
- experimental conditions: IC50 Range, Biological Test Example 1; microsomes from CHO cells overexpressing human 11β-HSD1
measured parameter: IC50

Look over these answered cases.
In [3]: df
Out[3]:
                                   molecule     value
0  CC(=O)N(C)CC[C@]1(c2ccccc2)CCN([C@@H](C)c2ccc(Br)cc2)C(=O)O1  < 100 nM
1  COc1ccc([C@H](C)N2CC[C@](CC(C)(C)O)(c3ccc(F)cc3)OC2=O)cc1  < 100 nM

Ask | Output IC50 of CC(C)NS(=O)(=O)c1ccc(-c2cccc(N3CCC(C)(c4ccccc4)OC3=O)c2)cc1 (stereo not drawn)
Reply | 100 to 1000 nM

Ask | Output IC50 of CC1(c2ccccc2)CCN(c2cccc(-c3c(Cl)cccc3Cl)c2)C(=O)O1 (stereo not drawn)
Reply | < 100 nM

Ask | Output IC50 of CC[C@@H](c1ccc(Br)cc1)N1CCC(CCO)(c2ccc(F)cc2)OC1=O (single isomer, unassigned) [EXAMPLE 143 Isomer 1]
Reply | < 100 nM

Ask | Output IC50 of "C[C@@H](c1ccc(-c2ccc(F)cc2)cc1)N1CC[C@@](CCCO)(c2cccs2)OC1=O"
Reply | < 100 nM

###

A collection of compounds and their measured inhibition at 0.1111 µM
- tested on: 11β-HSD1 (Homo sapiens)
- measurement protocol: biochemical
- experimental conditions: read-out: Average % inhibition at 111.1 nM
Field: numeric (%). Do not append units.

In [3]: df
Out[3]:
                                   compound  value
0  O=C1OC(CCO)(c2ccccc2F)CCN1c1ccc(Cl)c(-c2ccc(F)cc2)n1 (stereo not drawn)   95.4
1  CC1(c2ccccc2)CCN(c2ccnc(-c3cccc(F)c3)n2)C(=O)O1 (stereo not drawn)    5.6

Ask | Output inhibition at 0.1111 µM of CC1(c2ccccn2)CCN(c2cccc(-c3ccc(F)cc3F)c2)C(=O)O1 (stereo not drawn)
Reply | 77.8

Ask | Output inhibition at 0.1111 µM of CC1(c2ccccc2)CCN(c2nccc(Cl)n2)C(=O)O1 (stereo not drawn)
Reply | 10.4

Ask | Output inhibition at 0.1111 µM of CC1(c2cccc(Cl)c2)CCN(c2cccc(N3CCCCC3)n2)C(=O)O1 (stereo not drawn)
Reply | 57.1

Ask | Output inhibition at 0.1111 µM of CC1(c2ccccc2)CCN(c2ccnc(-c3ccc(F)cc3)n2)C(=O)O1 (stereo not drawn)
Reply | 3.7

###

- tested on: 11β-HSD1 (Homo sapiens, UniProt P28845)
- measurement protocol: biochemical
- experimental conditions: IC50 Range, Biological Test Example 1; microsomes from CHO cells overexpressing human 11β-HSD1
pIC50: −log10 of the molar value.
measured parameter: pIC50

Look over these answered cases.
                                   compound         value
0  CC(O)C[C@@]1(c2cccs2)CCN([C@@H](C)c2ccc(-c3ccc(F)cc3)cc2)C(=O)O1 (single isomer, unassigned) [EXAMPLE 167 Isomer 1]        > 7.00
1  COc1ccc([C@H](C)N2CCC(CCCO)(c3ccc(F)cc3)OC2=O)cc1 (single isomer, unassigned) [EXAMPLE 201 Isomer 2]        < 7.00
2  O=C1OC(CCO)(c2ccccc2F)CCN1c1ccc(F)c(-c2ccc(F)cc2)c1 (centres unmarked)        > 7.00
3  C[C@@H](c1ccc(OC(F)F)cc1)N1CC[C@](CCCNS(C)(=O)=O)(c2ccccc2)OC1=O        > 7.00
4  Cc1cccc(C2(C)CCN([C@@H](C)c3ccccc3)C(=O)O2)c1 (single isomer, unassigned) [EXAMPLE 87 Isomer 1]  6.00 to 7.00
5  CC1(c2ccccc2)CCN(c2cccc(-c3cccc(NS(C)(=O)=O)c3)c2)C(=O)O1 (centres unmarked)  6.00 to 7.00

Moving on to the next compound.
Ask | Output pIC50 of Cc1ccccc1C1(C)CCN([C@@H](C)c2ccccc2)C(=O)O1 (some centres unmarked) [EXAMPLE 86]
Reply | > 7.00
